B1: HDAC6 (parent)
chain: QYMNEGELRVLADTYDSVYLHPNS

variants of: B1; assay: protein stability index of a GFP-peptide fusion (GPS, HEK-293T) (PSI 1-6); higher = more stable; conditions: c terminus: a fixed tail appended;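 also: lentivirally expressed fusions sorted by FACS into six bins by GFP to DsRed ratio, PSI derived from sequencing read proportions per bin multiplied by bin number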
If the reported protein stability index equals or exceeds 3, assign 1. If not, assign 0.

QYMNEGELRVLADTYDHVYLHPNS: 0
IYMNEGELRVLADTYDSVYLHPNS: 0
QYMNEGELRVLADTYDGVYLHPNS: 0
QYMNEGELRELADTYDSVYLHPNS: 0
QYMNEGELRVLSDTYDSVYLHPNS: 0

INPUT: Exam item: decide whether the reported protein stability index for "QYMNEGELRVLADTYDSMYLHPNS" is at least 3.
OUTPUT: 0

INPUT: Now consider "QYMNEGELRVLADTYVSVYLHPNS" .
OUTPUT: 0

INPUT: Follow-up item: "QYMNEGELRVLWDTYDSVYLHPNS"
OUTPUT: 0

INPUT: Repeat with "QYMNEGELQVLADTYDSVYLHPNS"
OUTPUT: 0

INPUT: Cool, now "QYMTEGELRVLADTYDSVYLHPNS"
OUTPUT: 0

INPUT: Also "QYMNEGELRVLADTYDSFYLHPNS" ?
OUTPUT: 0

INPUT: Now give it for "QYMNEGMLRVLADTYDSVYLHPNS" too.
OUTPUT: 0

INPUT: And the next one, "QYMNEGELRVLAHTYDSVYLHPNS" ?
OUTPUT: 0
